Tested on: NF-κB pathway
Test: TNF-α assay (THP-1 cells differentiated to macrophages with IFN-γ, NF-κB pathway activated with LPS; ELISA)
Assay type: cell-based, Human
Conditions: Homo sapiens, THP-1, THP-1 macrophages, compound 30 min, 50 ng/mL LPS 3 hours
Measured Attribute: IC50

Look over these answered cases.
Cc1cc(Cl)cc(O)c1-n1cc2sc(N[C@@H]3C[C@@H](F)CN(C)C3)nc2n1 [Example 9] ... > 30 µM
COc1cc(C)cc(O)c1-n1cc2sc(N[C@@H]3C[C@@H](F)CN(C)C3)nc2n1 [Example 48] ... > 10 µM
Cc1cc(C)c(-n2cc3sc(N[C@H]4CN(C(=O)CC5CC5)C[C@@H]4F)nc3n2)c(O)c1 (racemic) [Example 106] ... > 30 µM
Cc1cc(O)c(-n2cc3sc(NC[C@@H](C)O)nc3n2)c(C2CC2(F)F)c1 (some centres unmarked) [Example 141] ... > 30 µM
COCCN(c1nc2nn(-c3c(C)cc(C)cc3O)cc2s1)[C@@H]1CCCN(C)C1 [Example 52] ... > 10 µM

// lookup IC50 for CNC(=O)N1C[C@H](Nc2nc3nn(-c4c(C)cc(C)cc4O)cc3s2)[C@@H](F)C1 (racemic) [Example 119]
> 30 µM

// lookup IC50 for Cc1cc(O)c(-n2cc3sc(NC[C@@H](C)O)nc3n2)c(C(C)C)c1 [Example 93]
> 30 µM

// lookup IC50 for Cc1cc(C)c(-n2cc3sc(NC4CCCN(S(C)(=O)=O)C4)nc3n2)c(O)c1 (centres unmarked) [Example 112]
> 10 µM

* * *

Target: NLRP3 inflammasome (Homo sapiens, UniProt Q96P20)
Construct: IL-1beta HTRF
Sequence (Q96P20 whole entry): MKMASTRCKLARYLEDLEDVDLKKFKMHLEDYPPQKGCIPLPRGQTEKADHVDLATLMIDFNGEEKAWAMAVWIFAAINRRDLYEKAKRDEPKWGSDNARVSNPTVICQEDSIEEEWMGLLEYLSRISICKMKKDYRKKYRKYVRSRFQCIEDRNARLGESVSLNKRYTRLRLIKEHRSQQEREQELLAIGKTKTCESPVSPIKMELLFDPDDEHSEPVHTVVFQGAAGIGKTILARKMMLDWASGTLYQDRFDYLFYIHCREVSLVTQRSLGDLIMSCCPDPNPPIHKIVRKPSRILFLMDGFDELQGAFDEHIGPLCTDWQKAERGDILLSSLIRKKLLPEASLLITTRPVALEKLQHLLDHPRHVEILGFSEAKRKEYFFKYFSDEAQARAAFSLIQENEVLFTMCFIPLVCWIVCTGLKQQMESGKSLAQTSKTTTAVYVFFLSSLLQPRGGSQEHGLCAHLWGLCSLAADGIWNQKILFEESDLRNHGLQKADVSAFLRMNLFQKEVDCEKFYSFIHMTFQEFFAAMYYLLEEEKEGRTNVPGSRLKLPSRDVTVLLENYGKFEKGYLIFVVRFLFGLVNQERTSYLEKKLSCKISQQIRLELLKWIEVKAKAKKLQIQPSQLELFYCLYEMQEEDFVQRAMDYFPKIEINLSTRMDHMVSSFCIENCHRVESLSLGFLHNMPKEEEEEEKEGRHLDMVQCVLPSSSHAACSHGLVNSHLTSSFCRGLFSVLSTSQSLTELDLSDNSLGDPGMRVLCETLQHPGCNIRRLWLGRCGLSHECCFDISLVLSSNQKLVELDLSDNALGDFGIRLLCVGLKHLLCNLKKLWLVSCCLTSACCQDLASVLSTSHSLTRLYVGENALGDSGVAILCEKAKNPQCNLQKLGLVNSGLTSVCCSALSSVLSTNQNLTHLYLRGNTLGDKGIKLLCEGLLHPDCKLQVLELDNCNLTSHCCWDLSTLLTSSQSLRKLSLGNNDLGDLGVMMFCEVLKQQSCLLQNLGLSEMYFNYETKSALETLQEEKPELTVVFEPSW
Test: IL-1β TR-FRET assay (THP-1 cells differentiated to macrophages with IFN-γ, LPS primed, ATP activated; HTRF)
Conditions: THP-1 macrophages, 50 ng/mL LPS priming, compound 30 min, 20 mM ATP 2 hours
Measured Attribute: IC50 (nM)

Look over these answered cases.
Cc1cc(C)c(-n2cc3sc(N[C@@H]4CC[C@H](O)C4)nc3n2)c(O)c1 [Example 47] ... 1200
CCN1C[C@H](F)C[C@@H](Nc2nc3nn(-c4c(O)cc(Cl)cc4C(F)F)cc3s2)C1 [Example 78] ... 4.3
Cc1cc(C)c(-n2cc3sc(NCC4(O)COC4)nc3n2)c(O)c1 [Example 161] ... 16000
CC(=O)NCCCNc1nc2nn(-c3c(C)cc(C)cc3O)cc2s1 [Example 56] ... 230
Cc1cc(C)c(-n2cc3sc(N[C@H]4CNC[C@H](F)C4)nc3n2)c(O)c1 [Example 62] ... 120
CCN1C[C@H](Nc2nc3nn(-c4c(C)cc(C)cc4O)cc3s2)[C@@H](F)C1 (racemic) [Example 21] ... 160

1 = Cc1cc(C)c(-n2cc3sc(NC4CCN(C(=O)C(F)F)C4)nc3n2)c(O)c1 (centres unmarked) [Example 90]
2 = CCN1C[C@H](F)C[C@@H](Nc2nc3nn(-c4c(O)cc(C)cc4OC(F)F)cc3s2)C1 [Example 51]
Compare the recorded IC50 of 1 and 2 ; state which is larger. To answer, give the label that identifies your chosen option.
1

* * *

Target: NLRP3 inflammasome (Homo sapiens, UniProt Q96P20)
Construct: IL-1beta HTRF
Assay: IL-1β TR-FRET assay (THP-1 cells differentiated to macrophages with IFN-γ, LPS primed, ATP activated; HTRF)
Conditions: THP-1 macrophages, 50 ng/mL LPS priming, compound 30 min, 20 mM ATP 2 hours
pIC50: −log10 of the molar value.
Measured Attribute: pIC50

I = CC(=O)N1CCC(Nc2nc3nn(-c4c(C)cc(C)cc4O)cc3s2)CC1 [Example 133]
II = Cc1cc(F)cc(O)c1-n1cc2sc(N[C@@H]3CCCN(C)C3)nc2n1 [Example 5]
III = Cc1cc(C)c(-n2cc3sc(N[C@@H]4CCCN(C5CCOC5)C4)nc3n2)c(O)c1 (single isomer, unassigned) [Example 71]
IV = CC(=O)N1C[C@H](Nc2nc3nn(-c4c(C)cc(C)cc4O)cc3s2)[C@@H](F)C1 (racemic) [Example 104]
rank_up(items): orders items by reported pIC50 in ascending numerical order. Your task in answering is to list the labels in the requested order.
I, IV, III, II

* * *

Below, each of the molecules is paired with its reported pIC50 value.
Test system: NF-κB pathway
Test: TNF-α assay (THP-1 cells differentiated to macrophages with IFN-γ, NF-κB pathway activated with LPS; ELISA)
Format: cell-based, Human
Conditions: Homo sapiens, THP-1, THP-1 macrophages, compound 30 min, 50 ng/mL LPS 3 hours
pIC50: −log10 of the molar value.

COC(=O)N1CCC(Nc2nc3nn(-c4c(C)cc(C)cc4O)cc3s2)C1 (stereo not shown) ... < 5.00
CN1C[C@H](F)C[C@@H](Nc2nc3nn(-c4c(O)cccc4Cl)cc3s2)C1 ... < 4.52
Cc1cc(O)c(-n2cc3sc(N[C@@H]4C[C@@H](F)CN(C)C4)nc3n2)c(C(C)C)c1 ... < 4.52

For the next question, use this molecule.
// lookup pIC50 for Cc1cc(C)c(-n2cc3sc(N[C@@H]4CCCN(CCF)C4)nc3n2)c(O)c1
< 4.52

* * *

Biological target: NLRP3 inflammasome (Homo sapiens, UniProt Q96P20)
Construct: IL-1beta HTRF
Assay: IL-1β TR-FRET assay (THP-1 cells differentiated to macrophages with IFN-γ, LPS primed, ATP activated; HTRF)
Conditions: THP-1 macrophages, 50 ng/mL LPS priming, compound 30 min, 20 mM ATP 2 hours
pIC50: −log10 of the molar value.
Measured Attribute: pIC50

Look over these answered cases.
COc1cc(C)cc(O)c1-n1cc2sc(N[C@@H]3C[C@@H](F)CN(C)C3)nc2n1 ... 6.89
Cc1cc(C)c(-n2cc3sc(NC4CCCC4O)nc3n2)c(O)c1 (centres unmarked) ... 6.32
CN1C[C@H](F)C[C@@H](Nc2nc3nn(-c4c(O)cc(Cl)cc4C(F)F)cc3s2)C1 ... 7.80
Cc1cc(C)c(-n2cc3sc(N[C@@H]4CN(C)C[C@H]4F)nc3n2)c(O)c1 ... 5.96

I = Cc1cc(C)c(-n2cc3sc(N[C@@H]4CCN(C(=O)OC5CC5)C4)nc3n2)c(O)c1
II = COC(=O)N1CCC(Nc2nc3nn(-c4c(C)cc(C)cc4O)cc3s2)CC1
III = CC(=O)N1CCCC(Nc2nc3nn(-c4c(C)cc(C)cc4O)cc3s2)C1 (centres unmarked)
IV = Cc1cc(O)c(-n2cc3sc(N[C@@H]4C[C@@H](F)CN(C)C4)nc3n2)c(COC(F)F)c1
Sequence the entries by pIC50, beginning with the highest number. Your task in answering is to list the labels in the requested order.
IV, I, III, II
(IV: 7.66, I: 6.57, III: 6.21, II: 5.96)

* * *

Target: NLRP3 inflammasome (Homo sapiens)
Construct: IL-1beta HTRF
Experiment: IL-1β TR-FRET assay (THP-1 cells differentiated to macrophages with IFN-γ, LPS primed, ATP activated; HTRF)
Conditions: THP-1 macrophages, 50 ng/mL LPS priming, compound 30 min, 20 mM ATP 2 hours
pIC50: −log10 of the molar value.
Measured Attribute: pIC50

Look over these answered cases.
Cc1cc(C)c(-n2cc3sc(N[C@H]4COC[C@H]4F)nc3n2)c(O)c1 (single isomer, unassigned) [Example 145] ... 6.36
Cc1cc(Cl)cc(O)c1-n1cc2c(nc(N[C@@H]3C[C@@H](F)CN(C)C3)n2C)n1 [Example 82] ... 7.31
Cc1cc(C)c(-n2cc3sc(NC[C@@H]4CCCO4)nc3n2)c(O)c1 [Example 116] ... 5.96
COC(=O)N1CC[C@H](Nc2nc3nn(-c4c(C)cc(C)cc4O)cc3s2)C1 [Example 156] ... 5.70
COCc1cc(C)cc(O)c1-n1cc2sc(N[C@@H]3C[C@@H](F)CN(C)C3)nc2n1 [Example 177] ... 7.40
CCN1C[C@@H](F)[C@@H](Nc2nc3nn(-c4c(C)cc(C)cc4O)cc3s2)C1 (racemic) [Example 23] ... 6.68

P = Cc1cc(O)c(-n2cc3sc(NC[C@@H](C)O)nc3n2)c(C(C)C)c1 [Example 93]
Q = CO[C@H]1CN(C)C[C@@H]1Nc1nc2nn(-c3c(C)cc(C)cc3O)cc2s1 [Example 40]
Lower pIC50: P or Q ? To answer, give the label that identifies your chosen option.
Q

1 = Cc1cc(C)c(-n2cc3sc(NC4CCCC(O)C4)nc3n2)c(O)c1 (stereo not drawn) [Example 29]
2 = Cc1cc(C)c(-n2cc3sc(NC4CC(=O)N(C)C4)nc3n2)c(O)c1 (stereo not drawn) [Example 95]
Lower pIC50: 1 or 2 ? To answer, give the label that identifies your chosen option.
2
(2: 5.89, 1: 6.27)

P = CCN1C[C@H](F)C[C@@H](Nc2nc3nn(-c4c(C)cc(C(F)F)cc4O)cc3s2)C1 [Example 16]
Q = Cc1cc(C)c(-n2cc3sc(NCC(F)(F)CO)nc3n2)c(O)c1 [Example 152]
Lower pIC50: P or Q ? To answer, give the label that identifies your chosen option.
Q

P = Cc1cc(O)c(-n2cc3sc(N[C@@H]4C[C@@H](F)CN(C)C4)nc3n2)c(C2CC2)c1 [Example 65]
Q = CC(=O)N1CCC(Nc2nc3nn(-c4c(C)cc(C)cc4O)cc3s2)C1 (stereo not drawn) [Example 85]
R = Cc1cc(C(F)F)cc(O)c1-n1cc2sc(N[C@@H]3C[C@@H](F)CN(C)C3)nc2n1 [Example 13]
Sequence the entries by pIC50, beginning with the highest number. Your task in answering is to list the labels in the requested order.
P, R, Q
(P: 8.08, R: 7.60, Q: 6.46)

Values were extracted from patent US20260365671A1.
